Recorded values, source patent US20100029689A1.

What log10(IC50) was measured for each of the following?
EXPERIMENTAL_TARGET: hPDE-4D6 (Homo sapiens, UniProt Q08499)
Sequence (Q08499 1-518 isoform Q08499-8): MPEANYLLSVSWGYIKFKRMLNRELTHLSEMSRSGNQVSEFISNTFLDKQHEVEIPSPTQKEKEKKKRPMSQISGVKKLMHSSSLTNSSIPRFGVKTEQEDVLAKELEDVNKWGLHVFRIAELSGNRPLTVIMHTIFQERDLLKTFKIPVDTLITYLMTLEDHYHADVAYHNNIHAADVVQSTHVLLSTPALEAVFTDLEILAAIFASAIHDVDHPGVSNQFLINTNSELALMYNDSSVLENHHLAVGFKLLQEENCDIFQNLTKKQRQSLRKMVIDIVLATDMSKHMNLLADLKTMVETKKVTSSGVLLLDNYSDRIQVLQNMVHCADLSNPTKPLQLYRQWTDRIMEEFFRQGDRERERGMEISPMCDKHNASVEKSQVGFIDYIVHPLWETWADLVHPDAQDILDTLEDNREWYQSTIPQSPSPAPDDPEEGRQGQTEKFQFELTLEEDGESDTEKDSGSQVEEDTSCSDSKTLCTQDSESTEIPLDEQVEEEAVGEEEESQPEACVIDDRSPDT
METHOD: In vitro measurement of type 4 phosphodiesterase inhibition activity (hPDE-4D6, [3H]cAMP/alumina column assay)
CONDITION: recombinant hPDE-4D6 from Sf9 cell lysate, 3 uM cAMP, 12 min, room temperature; read-out: PDE4D6 IC50
Short version: log10 scale, IC50, nM.

Exercise: Please report the recorded log10(IC50) for CCOc1cc(N(Cc2cnns2)c2ccc(C(=O)O)cc2)ccc1OC(F)F [Example 281] .
Key: -0.80

Exercise: And for CCOc1cc(Nc2ccc(C(=O)O)cc2)ccc1OC(F)F [Example 294] ?
Key: 1.54

Exercise: And for O=C(O)Cc1ccc(N(Cc2cncnc2)c2ccc(OC(F)F)c(OC(F)F)c2)cc1 [Example 137] ?
Key: 2.14

Exercise: And for CCOc1cc(N(Cc2cocn2)c2ccc(C(=O)O)cc2)ccc1OC(F)F [Example 190] ?
Key: 1.30

Exercise: And for COc1cc(N(Cc2cccnc2)c2ccc(C(=O)O)cc2)ccc1OC(F)F [Example 124] ?
Key: 1.05

###

EXPERIMENTAL_TARGET: hPDE-4D6 (Homo sapiens, UniProt Q08499)
Construct: made in house; host or cells: Sf9 insect cells (baculovirus)
METHOD: In vitro measurement of type 4 phosphodiesterase inhibition activity (hPDE-4D6, [3H]cAMP/alumina column assay)
Type: biochemical
CONDITION: recombinant hPDE-4D6 from Sf9 cell lysate, 3 uM cAMP, 12 min, room temperature; read-out: PDE4D6 IC50
ENDPOINT_NAME: pIC50
// pIC50 here means minus log10 of the molar concentration (mol/L)

Exercise: Please report the recorded pIC50 for COc1ccc(N(Cc2cncs2)c2ccc(C(=O)O)cc2)cc1OCC1CC1 .
Key: 7.60

Exercise: And for O=C(O)c1ccc(N(Cc2cnco2)c2ccc(OC(F)F)c(OC3CCC3)c2)cc1 ?
Key: 8.42

Exercise: And for O=C(O)c1ccc(Nc2ccc(OC(F)F)c(OC(F)F)c2)cc1 ?
Key: 6.97

Exercise: And for CCOc1cc(N(Cc2cnco2)c2ccc(C(=O)O)cc2)ccc1OC(F)(F)F ?
Key: 7.92

Exercise: And for COc1ccc(N(Cc2cncs2)c2ccc(C(=O)O)cc2)cc1OC ?
Key: 7.21

Exercise: And for COc1cc(N(Cc2cncs2)c2cccc(C(=O)O)c2)ccc1OC(F)F ?
Key: 8.15

Exercise: And for COc1ccc(N(Cc2cncs2)c2ccc(C(=O)O)cc2)cc1OC(C)C ?
Key: 7.76

Exercise: And for CCOc1cc(N(Cc2cccnc2)c2ccc(C(=O)O)cc2)ccc1OC(F)F ?
Key: 8.60

Exercise: And for CCOc1cc(N(Cc2cncnc2)c2ccc(C(=O)O)cc2)ccc1OC(F)F ?
Key: 8.12

###

What melting point was measured for each of the following?

Exercise: Please report the recorded melting point for COc1ccc(N(Cc2cncnc2)c2ccc(C(=O)O)cc2)cc1OC1CCC1 [Compound 193] .
Key: 174 to 177.9 °C

Exercise: And for COc1ccc(N(Cc2cncnc2)c2ccc(C(=O)O)cc2)cc1OC1CCCC1 [Compound 43] ?
Key: 156.6 to 159.8 °C

Exercise: And for CC(C)Oc1cc(N(Cc2cccnc2)c2ccc(C(=O)O)cc2)ccc1OC(F)F [Compound 107] ?
Key: 66.5 to 67.9 °C

Exercise: And for O=C(O)c1ccc(N(Cc2cncnc2)c2ccc(OC(F)F)c(OCc3ccccc3)c2)cc1 [Compound 214] ?
Key: 157.4 to 158.2 °C

Exercise: And for CCOc1cc(N(Cc2cnco2)c2cccc(C(=O)O)c2)ccc1OC [Compound 200] ?
Key: 158 to 159.8 °C

Exercise: And for CC(C)Oc1cc(N(Cc2cccnc2)c2cccc(C(=O)O)c2)ccc1OC(F)F [Compound 108] ?
Key: 57.3 to 58.9 °C

Exercise: And for CCOc1cc(N(Cc2cnco2)c2ccc(C(=O)O)cc2)ccc1OC [Compound 181] ?
Key: 175.6 to 176.9 °C

Exercise: And for O=C(O)Cc1ccc(N(Cc2cccnc2)c2ccc(OC(F)F)c(OC(F)F)c2)cc1 [Compound 69] ?
Key: 107.4 to 108.1 °C

###

What melting point was measured for each of the following?

Exercise: Please report the recorded melting point for O=C(O)c1ccc(N(Cc2cnco2)c2ccc(OC(F)F)c(OC(F)F)c2)cc1 [Compound 141] .
Key: 132.4 to 135 °C

Exercise: And for COc1ccc(N(Cc2cncs2)c2ccc(C(=O)O)cc2)cc1OC1CCCC1 [Compound 40] ?
Key: 88 to 90.3 °C

Exercise: And for COc1ccc(N(Cc2cncs2)c2cccc(C(=O)O)c2)cc1O[C@@H]1CCOC1 [Compound 70] ?
Key: 60.3 to 61.9 °C

Exercise: And for CCOc1cc(N(Cc2cccnc2)c2ccc(C(=O)O)cc2)ccc1OC(F)F [Example 11] ?
Key: 177.6 to 178.9 °C

Exercise: And for COc1cc(N(Cc2cnccn2)c2ccc(C(=O)O)cc2)ccc1OC(F)F [Compound 154] ?
Key: 157.2 to 157.7 °C

Exercise: And for COc1cc(N(Cc2cccnc2)c2ccc(C(=O)O)cc2)ccc1OC(F)F [Compound 124] ?
Key: 182.4 to 183.4 °C

Exercise: And for O=C(O)c1ccc(N(Cc2cncnc2)c2ccc(OC(F)F)c(OCC3CC3)c2)cc1 [Compound 168] ?
Key: 265.1 to 266.6 °C

Exercise: And for O=C(O)c1ccc(N(Cc2cnccn2)c2ccc(OC(F)F)c(OCC3CC3)c2)cc1 [Compound 157] ?
Key: 81.2 to 82.3 °C

Exercise: And for COc1cc(N(Cc2cncnc2)c2ccc(C(=O)O)cc2)ccc1OC(F)F [Compound 153] ?
Key: 191.3 to 191.5 °C

###

What melting point was measured for each of the following?

Exercise: Please report the recorded melting point for COc1ccc(N(Cc2cnco2)c2ccc(C(=O)O)cc2)cc1OC(C)C .
Key: 60.3 to 61 °C

Exercise: And for COc1ccc(N(Cc2cccnc2)c2ccc(C3NC(=O)NC3=O)cc2)cc1OC1CCCC1 (centres unmarked) ?
Key: 108 to 112.5 °C

Exercise: And for COc1ccc(N(Cc2cnc(N(C)C)nc2)c2ccc(C(=O)O)cc2)cc1OC1CCCC1 ?
Key: 95.9 to 99.5 °C

Exercise: And for O=C(O)c1ccc(N(Cc2cncs2)c2ccc(OC(F)F)c(OC(F)F)c2)cc1 ?
Key: 144.3 to 145.7 °C

Exercise: And for O=C(O)c1ccc(N(Cc2cnccn2)c2ccc(OC(F)F)c(OC(F)F)c2)cc1 ?
Key: 158 to 161.1 °C

Exercise: And for O=C(O)c1cccc(N(Cc2cnccn2)c2ccc(OC(F)F)c(OCC3CC3)c2)c1 ?
Key: 72.7 to 73.1 °C

Exercise: And for COc1ccc(N(CC2CCNCC2)c2cccc(C(=O)O)c2)cc1OC1CCCC1 ?
Key: 228.8 to 232.1 °C

Exercise: And for COc1ccc(N(Cc2cncnc2)c2ccc(C(=O)O)cc2)cc1OC(C)C ?
Key: 181.7 to 183.6 °C

###

EXPERIMENTAL_TARGET: hPDE-4D6 (Homo sapiens, UniProt Q08499)
METHOD: In vitro measurement of type 4 phosphodiesterase inhibition activity (hPDE-4D6, [3H]cAMP/alumina column assay)
CONDITION: recombinant hPDE-4D6 from Sf9 cell lysate, 3 uM cAMP, 12 min, room temperature; read-out: PDE4D6 IC50
ENDPOINT_NAME: pIC50
// pIC50 here means minus log10 of the molar concentration (mol/L)

Exercise: Please report the recorded pIC50 for COc1ccc(N(Cc2cnco2)c2ccc(C(=O)O)cc2)cc1OC1CC1 .
Key: 8.64

Exercise: And for COc1ccc(N(Cc2cnco2)c2ccc(C(=O)O)cc2)cc1OC(F)(F)F ?
Key: 8.16

Exercise: And for COc1ccc(N(Cc2cncs2)c2ccc(S(C)(=O)=O)cc2)cc1O[C@@H]1CCOC1 ?
Key: 7.54

Exercise: And for O=C(O)c1ccc(N(Cc2cncnc2)c2ccc(OC(F)F)c(OC(F)F)c2)cc1 ?
Key: 8.21

###

ENDPOINT_NAME: melting point

Exercise: Please report the recorded melting point for O=C(O)c1ccc(N(Cc2cccnn2)c2ccc(OC(F)F)c(OC(F)F)c2)cc1 .
Key: 162.6 to 164.8 °C

Exercise: And for CC(C)Oc1cc(N(Cc2cncs2)c2ccc(C(=O)O)cc2)ccc1OC(F)F ?
Key: 158 to 158.5 °C

Exercise: And for COc1ccc(N(Cc2cnc(N(C)C)nc2)c2cccc(C(=O)O)c2)cc1OC1CCCC1 ?
Key: 82 to 84.7 °C

Exercise: And for COc1ccc(N(Cc2cncs2)c2ccc(C(=O)O)cc2)cc1OC(F)F ?
Key: 86.4 to 88.3 °C

Exercise: And for CC(C)Oc1cc(N(Cc2cncs2)c2cncc(C(=O)O)c2)ccc1OC(F)F ?
Key: 121.7 to 123.1 °C

Exercise: And for CCOc1cc(N(Cc2cncnc2)c2ccc(C(=O)O)cc2)ccc1OC(F)F ?
Key: 165.3 to 165.9 °C

Exercise: And for COc1cc(N(Cc2cncnc2)c2ccc(C(=O)O)cc2)ccc1OCC(F)(F)F ?
Key: 208.7 to 209.9 °C

Exercise: And for O=C1NC(=O)C(c2cccc(N(Cc3cncs3)c3ccc(OC(F)F)c(OC(F)F)c3)c2)N1 (centres unmarked) ?
Key: 63.1 to 82.3 °C

Exercise: And for CC(C)Oc1cc(N(Cc2cncs2)c2cccc(C(=O)O)c2)ccc1OC(F)F ?
Key: 58.6 to 60 °C

Exercise: And for CCOc1cc(N(Cc2cnc(C)s2)c2ccc(C(=O)O)cc2)ccc1OC(F)F ?
Key: 73.1 to 74.1 °C

Exercise: And for CCCCOc1cc(N(Cc2cccnc2)c2ccc(C(=O)O)cc2)ccc1OC(F)F ?
Key: 133.7 to 135.1 °C

Exercise: And for COc1ccc(N(Cc2cncs2)c2cccc(C(=O)O)c2)cc1OCC1CC1 ?
Key: 137.4 to 139.4 °C

Exercise: And for COc1ccc(N(Cc2cncs2)c2ccc(C(=O)O)cc2)cc1OC ?
Key: 86.4 to 88.3 °C

Exercise: And for COc1ccc(N(Cc2cscn2)c2cccc(C(=O)O)c2)cc1OC1CCCC1 ?
Key: 75.5 to 77.7 °C

Exercise: And for O=C(O)c1cccc(N(Cc2cncs2)c2ccc(OC(F)F)c(OC3CCCC3)c2)c1 ?
Key: 56.3 to 58 °C

Exercise: And for CCOc1cc(-c2ncc(CN(c3ccc(C(=O)O)cc3)c3ccc(OC(F)F)c(OCC)c3)o2)ccc1OC(F)F ?
Key: 178.4 to 178.9 °C

Exercise: And for CCOc1ccc(N(Cc2cncs2)c2ccc(C(=O)O)cc2)cc1OCC ?
Key: 77 to 79 °C
